Hello, the source for this data is patent US20130225488A1, in case you need it.

biological target: Human GLP-1 receptor (human, UniProt P43220 24-463); experiment: cell-based or functional assay
Sequence (P43220 24-463): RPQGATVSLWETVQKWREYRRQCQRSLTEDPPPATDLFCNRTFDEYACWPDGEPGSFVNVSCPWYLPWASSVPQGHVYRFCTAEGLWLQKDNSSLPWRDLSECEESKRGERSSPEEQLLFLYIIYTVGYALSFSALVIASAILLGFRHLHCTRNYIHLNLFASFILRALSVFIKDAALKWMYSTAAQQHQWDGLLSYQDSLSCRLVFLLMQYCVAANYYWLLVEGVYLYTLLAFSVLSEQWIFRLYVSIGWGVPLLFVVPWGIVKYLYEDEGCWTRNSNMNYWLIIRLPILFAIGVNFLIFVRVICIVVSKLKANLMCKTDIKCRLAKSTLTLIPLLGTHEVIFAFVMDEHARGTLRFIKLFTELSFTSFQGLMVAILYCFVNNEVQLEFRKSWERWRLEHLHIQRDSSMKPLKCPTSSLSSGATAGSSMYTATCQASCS
Where no end group is shown, it is not given here. [ ]: non-standard residue; d: D form. αMePhe(2-F) = C[C@](N)(Cc1ccccc1F)C(=O)O; Ac3c = NC1(C(=O)O)CC1
measured.endpoint: cAMP release, % activity with respect to control; test compound 10 µM (%)

- binder: "H[Ac3c]QGTFTSD[Bip(OMe)][Bip(2Me)] [Seq. ID. No. 17: H-(ACP)-QGTFTSD-Bip(OMe)-Bip(2Me)]"
  unit.descriptor: "%"
  value.observed: 99
- binder: "HAQGTFTSD[Bip(OMe)][Bip(2F)] [Seq. ID. No. 11: HAQGTFTSD-Bip(OMe)-Bip(2F)]"
  unit.descriptor: "%"
  value.observed: 99
- binder: "HXQGTXTSDXX (Aib at 2; α-Me-2F-Phe at 6; Bip(OMe) at 10; Bip(2Me) at 11) [Seq. ID. No. 29: H-Aib-QGT-(α-Me-2F-Phe)-TSD-Bip(OMe)-Bip(2Me)]"
  unit.descriptor: "%"
  value.observed: 99
- binder: "HAQGT[αMePhe(2-F)]TSD[Bip(OMe)][Bip(2CF3)] [Seq. ID. No. 28: HAQGT-(α-Me-2F-Phe)-TSD-Bip(OMe)-Bip(2CF3)]"
  unit.descriptor: "%"
  value.observed: 99
- binder: "H[Ac3c]QGTFTSD[Bip(OMe)][Bip(Pyr)] [Seq. ID. No. 18: H-(ACP)-QGTFTSD-Bip(OMe)-Bip(Pyr)]"
  unit.descriptor: "%"
  value.observed: 99
- binder: "HXQGTXTSDXX (not fully specified; ACP at 2; α-Me-2F-Phe at 6; Bip(OMe) at 10; Bip(2F) at 11) [Seq. ID. No. 35: H-(ACP)-QGT-(α-Me-2F-Phe)-TSD-Bip(OMe)-Bip(2F)]"
  unit.descriptor: "%"
  value.observed: 99
- binder: "HAQGT[αMePhe(2-F)]TSD[Bip(OMe)][Bip(2Me)] [Seq. ID. No. 25: HAQGT-(α-Me-2F-Phe)-TSD-Bip(OMe)-Bip(2Me)]"
  unit.descriptor: "%"
  value.observed: 97
